Values compiled from patent US20250115597A1.

procedureDetails: Kinetic solubility
Format: physicochemical
assayContext: phosphate buffer, aqueous buffer, kinetic from dmso stock, PBS (pH 7.4), 1% DMSO, room temperature
readoutName: solubility at 2 h (µM)

[2H]C([2H])([2H])NC(=O)c1cnc(NC(=O)C2CC2)cc1Nc1ccc2cnn(C(C)C#N)c2c1OC (stereo not shown) [Example 249] :: 47.4
[2H]C([2H])([2H])NC(=O)c1cnc(Nc2ccc(F)cn2)cc1Nc1cn(CCOC)c2ccn(CC)c(=O)c12 [Example 192] :: 17.8
[2H]C([2H])([2H])NC(=O)c1cnc(NC(=O)C2CC2)cc1Nc1cn(C)c2ncn([C@H](C)C(F)(F)F)c(=O)c12 (single isomer, unassigned) [Example 234A] :: 29.9
CCn1ncc2cnc(Nc3cc(NC(=O)C4CC4)ncc3C(=O)NC)c(OC)c21 [Example 261] :: 58
[2H]C([2H])([2H])NC(=O)c1cnc2cc1Nc1cc(cc(-c3ncn(CC)n3)c1OC)COCc1nc(ccc1F)N2 [Example 85] :: 15.2

A. [2H]C([2H])([2H])NC(=O)c1cnc(NC(=O)C2CC2)cc1Nc1ccc2cnn(CC(F)(F)F)c2c1OC [Example 129]
B. [2H]C([2H])([2H])NC(=O)c1cnc(NC(=O)C2CC2)cc1Nc1ccc2cnn(C)c2c1OC [Example 206]
Query: I need your help: which of the pair A , B has higher solubility at 2 h? Please reply using the label of the selected record.
Reply: B
